Origin of values: patent US9573956B2

# Assayed target: HDAC2 (Homo sapiens)
# Construct: NM_001527; Cat. #50002) is full-length with C-terminal his tag; His (C); purchased BPS Biosciences 50002; host or cells: baculovirus infected Sf9 cells
# Assay explanation: HDAC enzyme activity assay (fluorogenic substrate), HDAC2
# Type: biochemical
# Condition details: recombinant enzyme; read-out: HDAC2 inhibition (IC50)
pIC50: −log10 of the molar value.
Metric: pIC50

| Molecule | Assayed target | pIC50 |
| --- | --- | --- |
| CCCc1nn(C)c2c(=O)[nH]c(-c3cc(-c4ccc(C(=O)NO)cc4)ccc3OCC)nc12 [Example 1-30] | HDAC2 (Homo sapiens) | 5.00 to 6.00 |
| CCCc1nn(C)c2c(=O)[nH]c(-c3cc(Cc4ccc(C(=O)NO)o4)ccc3OCC)nc12 [Example 1-17] | HDAC2 (Homo sapiens) | < 5.00 |
| CCCc1nn(C)c2c(=O)[nH]c(-c3cc(Cc4ccc(CC(=O)NO)cc4)ccc3OCC)nc12 [Example 1-18] | HDAC2 (Homo sapiens) | < 5.00 |
| CCCc1nn(C)c2c(=O)[nH]c(-c3cc(CC4CCN(C(=O)NO)CC4)ccc3OCC)nc12 [Example 1-49] | HDAC2 (Homo sapiens) | < 5.00 |
| CC(c1nc2c(cnn2C2CCOCC2)c(=O)[nH]1)N1CC(Oc2ccc(C(=O)NO)cc2)C1 (stereo not shown) [Example 3-13] | HDAC2 (Homo sapiens) | 5.00 to 6.00 |

Request the reported pIC50 associated with CCCc1nn(C)c2c(=O)[nH]c(-c3cc(CC4CC4C(=O)NO)ccc3OCC)nc12 (stereo not shown) [Example 1-86]
< 5.00

Request the reported pIC50 associated with CC1CN(Cc2ccc(C(=O)NO)s2)CC1c1nc2c(cnn2C2CCCC2)c(=O)[nH]1 (racemic) [Example 3-17]
5.00 to 6.00

----------
# Tested on: acetylated-α-tubulin
# Assay explanation: AD-related markers in Tg2576 neurons: acetylated-tubulin
# Type: cell-based
# Condition details: Mus musculus, Neuron, 48 h, treated two days, EC50 = 50% increase in acetylated-α-tubulin over basal, read-out: AcTub (EC50)
pEC50: −log10 of the molar value.
Recorded measurements of pEC50, one per entry

Here's what some known entries look like.
| Compound | pEC50 |
| --- | --- |
| CCCc1nn(C)c2c(=O)[nH]c(-c3cc(Cc4ccc(C(=O)NO)s4)ccc3OCC)nc12 [Example 1-16] | 6.00 to 8.00 |
| CCCc1nn(C)c2c(=O)[nH]c(-c3cc(CC4CC(C(=O)NO)C4)ccc3OCC)nc12 (racemic) [Example 1-19] | 6.00 to 8.00 |
| CCCc1nn(C)c2c(=O)[nH]c(-c3cc(S(=O)(=O)N4CCN(c5ncc(C(=O)NO)cn5)CC4)ccc3OCC)nc12 [Example 1-06] | 6.00 to 8.00 |

Now look at this one.
Request the reported pEC50 associated with CCCc1nn(C)c2c(=O)[nH]c(-c3cc(Cc4ccc(C(=O)NO)cc4)ccc3OCC)nc12 [Example 1-15]
6.00 to 8.00

----------
Recorded measurements of pIC50, one per entry
# Assayed target: HDAC2 (Homo sapiens, UniProt Q92769)
# Construct: NM_001527; Cat. #50002) is full-length with C-terminal his tag; His (C); purchased BPS Biosciences 50002; host or cells: baculovirus infected Sf9 cells
# Sequence (Q92769 whole entry): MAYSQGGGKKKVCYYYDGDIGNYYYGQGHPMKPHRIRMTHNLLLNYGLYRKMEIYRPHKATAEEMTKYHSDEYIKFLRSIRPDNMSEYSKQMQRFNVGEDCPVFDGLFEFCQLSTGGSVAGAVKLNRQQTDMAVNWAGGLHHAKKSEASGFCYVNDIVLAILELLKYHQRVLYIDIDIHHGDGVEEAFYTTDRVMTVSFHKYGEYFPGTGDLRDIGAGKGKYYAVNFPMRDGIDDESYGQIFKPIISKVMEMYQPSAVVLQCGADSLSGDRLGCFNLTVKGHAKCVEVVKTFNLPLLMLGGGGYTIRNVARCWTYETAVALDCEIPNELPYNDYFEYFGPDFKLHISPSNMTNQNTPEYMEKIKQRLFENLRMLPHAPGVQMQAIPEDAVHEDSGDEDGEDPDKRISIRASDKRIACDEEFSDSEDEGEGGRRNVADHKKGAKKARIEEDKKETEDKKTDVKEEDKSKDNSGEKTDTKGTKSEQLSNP
# Assay explanation: HDAC enzyme activity assay (fluorogenic substrate), HDAC2
# Format: biochemical
# Condition details: recombinant enzyme; read-out: HDAC2 inhibition (IC50)
pIC50: −log10 of the molar value.

| Compound | Obs value |
| --- | --- |
| CCCc1nn(C)c2c(=O)[nH]c(-c3cc(Cc4ccc(C(=O)NO)c(F)c4)ccc3OCC)nc12 | < 5.00 |

Request the reported pIC50 associated with CCCc1nn(C)c2c(=O)[nH]c(-c3cc(Nc4ccc(C(=O)NO)cc4)ccc3OCC)nc12
< 5.00

Request the reported pIC50 associated with CCCc1nn(C)c2c(=O)[nH]c(-c3cc(Oc4ccc(C(=O)NO)cc4)ccc3OCC)nc12
5.00 to 6.00

Request the reported pIC50 associated with CCCc1nn(C)c2c(=O)[nH]c(-c3cc(N4CCC5(CCCN(c6ncc(C(=O)NO)cn6)C5)C4)ccc3OCC)nc12 (stereo not shown)
5.00 to 6.00

Request the reported pIC50 associated with CCCc1nn(C)c2c(=O)[nH]c(-c3cc(NC4CCN(c5ncc(C(=O)NO)cn5)CC4)ccc3OCC)nc12
6.00 to 8.00

Request the reported pIC50 associated with CCCc1nn(C)c2c(=O)[nH]c(-c3cc(N4CCC5(CCC(C(=O)NO)C5)CC4)ccc3OCC)nc12 (stereo not shown)
< 5.00

Request the reported pIC50 associated with CCCc1nn(C)c2c(=O)[nH]c(-c3cc(CN4CCC(C(=O)NO)CC4)ccc3OCC)nc12
< 5.00

----------
Recorded measurements of IC50, one per entry
# Assayed target: UniProt:Q13547
# Sequence (Q13547 whole entry): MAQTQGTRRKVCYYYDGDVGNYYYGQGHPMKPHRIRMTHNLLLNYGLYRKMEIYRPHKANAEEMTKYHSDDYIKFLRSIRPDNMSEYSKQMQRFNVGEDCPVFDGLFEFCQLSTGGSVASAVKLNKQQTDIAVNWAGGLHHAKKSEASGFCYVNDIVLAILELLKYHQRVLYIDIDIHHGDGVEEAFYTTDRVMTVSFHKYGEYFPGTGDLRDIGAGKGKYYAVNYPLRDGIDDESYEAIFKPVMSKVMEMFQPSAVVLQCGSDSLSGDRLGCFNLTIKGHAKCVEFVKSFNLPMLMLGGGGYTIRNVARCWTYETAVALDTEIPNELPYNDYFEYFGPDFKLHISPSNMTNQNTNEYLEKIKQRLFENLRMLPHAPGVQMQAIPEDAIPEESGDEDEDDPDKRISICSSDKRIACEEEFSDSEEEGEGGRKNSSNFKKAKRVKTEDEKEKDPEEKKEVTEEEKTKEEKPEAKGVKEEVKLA
# Assay explanation: HDAC enzyme activity assay (fluorogenic substrate), HDAC1
# Type: biochemical
# Condition details: recombinant enzyme; read-out: HDAC1 inhibition (IC50)

| Molecule | Obs value |
| --- | --- |
| O=C(CCCN1CCC(N2CC(=O)N3[C@H](c4ccc5c(c4)OCO5)c4[nH]c5ccccc5c4C[C@@H]3C2=O)CC1)NO | > 10000 nM |
| CCCc1nn(C)c2c(=O)[nH]c(-c3cc(CC4CCC(C(=O)NO)CC4)ccc3OCC)nc12 (centres unmarked) [Example 1-29] | 10 to 1000 nM |
| CCCc1nn(C)c2c(=O)[nH]c(-c3cc(S(=O)(=O)NC4CCN(c5ncc(C(=O)NO)cn5)CC4)ccc3OCC)nc12 | 10 to 1000 nM |
| CCCc1nn(C)c2c(=O)[nH]c(-c3cc(CC4CC(C(=O)NO)C4)ccc3OCC)nc12 (centres unmarked) [Example 1-62] | 10 to 1000 nM |
| CCCc1nn(C)c2c(=O)[nH]c(-c3cc(Cc4ccc(/C=C/C(=O)NO)cc4)ccc3OCC)nc12 | 1000 to 10000 nM |
| O=C(NO)c1cnc(N2CCC(N3CC(=O)N4C(Cc5c([nH]c6ccccc56)C4c4ccc5c(c4)OCO5)C3=O)CC2)nc1 (racemic) | 10 to 1000 nM |

Request the reported IC50 associated with CCCc1nn(C)c2c(=O)[nH]c(-c3cc(C(=O)NO)ccc3OCC)nc12
1000 to 10000 nM

Request the reported IC50 associated with CCCc1nn(C)c2c(=O)[nH]c(-c3cc(-c4ccc(C(=O)NO)cc4)ccc3OCC)nc12
10 to 1000 nM

Request the reported IC50 associated with CCCc1nn(C)c2c(=O)[nH]c(-c3cc(N4CCCC5(CCC(C(=O)NO)CC5)C4)ccc3OCC)nc12 (centres unmarked)
1000 to 10000 nM

Request the reported IC50 associated with CCCc1nn(C)c2c(=O)[nH]c(-c3cc(Cc4ccc(C(=O)NO)c(F)c4)ccc3OCC)nc12
1000 to 10000 nM

Request the reported IC50 associated with CCCc1nn(C)c2c(=O)[nH]c(-c3cc(-c4ccc(CC(=O)NO)cc4)ccc3OCC)nc12
> 10000 nM

Request the reported IC50 associated with CC(c1nc2c(cnn2C2CCOCC2)c(=O)[nH]1)N1CC(OC2CCN(c3ncc(C(=O)NO)cn3)CC2)C1 (centres unmarked)
10 to 1000 nM

Request the reported IC50 associated with CC1CN(Cc2ccc(C(=O)NO)s2)CC1c1nc2c(cnn2C2CCCC2)c(=O)[nH]1 (racemic)
10 to 1000 nM

Request the reported IC50 associated with CCCc1nn(C)c2c(=O)[nH]c(-c3cc(S(=O)(=O)N4CCN(Cc5ccc(/C=C/C(=O)NO)cc5)CC4)ccc3OCC)nc12
10 to 1000 nM

----------
# Assayed target: PDE5A (Homo sapiens)
# Construct: they are full-length with N-terminal GST tag; GST (N); purchased BPS Biosciences 60050; host or cells: baculovirus infected Sf9 cells
# Assay explanation: PDE enzyme activity assay (HTRF cGMP), PDE5A
# Type: biochemical
# Condition details: comparative example; read-out: PDE5A1 IC50
Metric: IC50

Request the reported IC50 associated with CCCc1nc(C)c2c(=O)[nH]c(-c3cc(CC4CC(C(=O)N(C)OC)C4)ccc3OCC)nn12 (stereo not shown) [Comparative Example 2-02, reference compound]
< 0.01 µM

----------
Recorded measurements of pIC50, one per entry
# Assayed target: HDAC3 (Homo sapiens, UniProt O15379)
# Construct: is full-length with C-terminal his tag and human NCOR2, N-terminal GST tag; His (C)
# Sequence (O15379 whole entry): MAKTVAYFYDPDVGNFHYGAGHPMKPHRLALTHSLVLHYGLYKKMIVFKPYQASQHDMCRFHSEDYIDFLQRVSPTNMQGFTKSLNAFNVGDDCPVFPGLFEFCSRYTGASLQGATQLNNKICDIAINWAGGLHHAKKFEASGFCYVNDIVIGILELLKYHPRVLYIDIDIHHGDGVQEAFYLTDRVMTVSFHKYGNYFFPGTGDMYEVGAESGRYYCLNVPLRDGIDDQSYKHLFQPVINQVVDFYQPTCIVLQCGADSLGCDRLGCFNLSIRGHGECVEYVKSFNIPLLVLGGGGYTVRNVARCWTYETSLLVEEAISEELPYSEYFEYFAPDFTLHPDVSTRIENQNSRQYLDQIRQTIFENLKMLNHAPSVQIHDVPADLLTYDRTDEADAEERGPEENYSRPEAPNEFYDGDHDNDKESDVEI
# Sequence (Q9Y618 395-489 partner limits assumed): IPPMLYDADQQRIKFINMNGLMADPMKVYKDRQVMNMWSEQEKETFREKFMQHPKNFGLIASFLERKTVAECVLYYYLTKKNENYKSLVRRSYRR
# Assay explanation: HDAC enzyme activity assay (fluorogenic substrate), HDAC3
# Condition details: recombinant enzyme; read-out: HDAC3 inhibition (IC50)
pIC50: −log10 of the molar value.

| Molecule | Assayed target | pIC50 |
| --- | --- | --- |
| CCCc1nn(C)c2c(=O)[nH]c(-c3cc(Cc4ccc(C(=O)NO)o4)ccc3OCC)nc12 | HDAC3 (Homo sapiens, UniProt O15379) | < 5.00 |
| CCCc1nn(C)c2c(=O)[nH]c(-c3cc(S(=O)(=O)NC4CCN(c5ncc(C(=O)NO)cn5)CC4)ccc3OCC)nc12 | HDAC3 (Homo sapiens, UniProt O15379) | 6.00 to 8.00 |
| CCCc1nn(C)c2c(=O)[nH]c(-c3cc(NC4CCN(c5ncc(C(=O)NO)cn5)CC4)ccc3OCC)nc12 | HDAC3 (Homo sapiens, UniProt O15379) | 6.00 to 8.00 |

Request the reported pIC50 associated with CCCc1nn(C)c2c(=O)[nH]c(-c3cc(S(=O)(=O)N4CCN(c5ncc(C(=O)NO)cn5)CC4)ccc3OCC)nc12
6.00 to 8.00

Request the reported pIC50 associated with CCCc1nn(C)c2c(=O)[nH]c(-c3cc(CC4CC(C(=O)NO)C4)ccc3OCC)nc12 (racemic)
6.00 to 8.00

Request the reported pIC50 associated with CCCc1nn(C)c2c(=O)[nH]c(-c3cc(N(C)C4CCN(c5ncc(C(=O)NO)cn5)CC4)ccc3OCC)nc12
6.00 to 8.00

Request the reported pIC50 associated with CCCc1nn(C)c2c(=O)[nH]c(-c3cc(Cc4ccc(C(=O)NO)cc4)ccc3OCC)nc12
5.00 to 6.00
